# System: E. coli BW25113 ΔbamBΔtolC
# Construct: BW25113 ΔbamBΔtolC empty vector pGDP4
# assay_name: microbe, parasite or virus in culture
# condition_info: Escherichia coli, BW25113, 24 h; empty vector
quantity_kind: MIC (µg/mL)
Answers are plain numbers, in µg/mL.

Recorded MIC, per entry:
CC[C@H]1OC(=O)[C@H](C)[C@@H](O[C@H]2C[C@@](C)(OC)[C@@H](O)[C@H](C)O2)[C@H](C)[C@@H](O[C@@H]2O[C@H](C)C[C@H](N(C)C)[C@H]2O)[C@](C)(OC)C[C@@H](C)C(=O)[C@H](C)[C@@H](O)[C@]1(C)O [Clarithromycin]; 0.5
CC[C@H]1OC(=O)[C@H](C)C(=O)[C@H](C)[C@@H](O[C@@H]2O[C@H](C)C[C@H](N(C)C)[C@H]2O)[C@](C)(OC)C[C@@H](C)C(=O)[C@H](C)[C@H]2N(CCCCn3cnc(-c4cccnc4)c3)C(=O)O[C@]12C [telithromycin]; 0.125

For CO[C@@H]1[C@@H](O[C@@H]2O[C@H](C)[C@@H](O[C@H]3C[C@@](C)(O)[C@@H](O)[C@H](C)O3)[C@H](N(C)C)[C@H]2O)[C@@H](CC=O)C[C@@H](C)[C@@H](O[C@H]2CC[C@H](N(C)C)[C@@H](C)O2)/C=C/C=C/C[C@@H](C)OC(=O)C[C@H]1O [Spiramycin] , what is its reported MIC?
2

* * *

# Tested on: E. coli BW25113 ΔbamBΔtolC
# Construct: BW25113 ΔbamBΔtolC empty vector pGDP4
# assay_name: microbe, parasite or virus in culture
# condition_info: Escherichia coli, BW25113, 24 h; empty vector
quantity_kind: MIC (µg/mL)
Numbers only, in µg/mL.

Recorded MIC, per entry:
NC[C@H]1O[C@H](O[C@H]2[C@H](O)[C@@H](O[C@H]3O[C@H](CO)[C@@H](O)[C@H](N)[C@H]3O)[C@H](N)C[C@@H]2N)[C@H](O)[C@@H](O)[C@@H]1O; 1
CC[C@H]1OC(=O)C[C@@H](O)[C@H](C)[C@@H](O[C@@H]2O[C@H](C)[C@@H](O[C@H]3C[C@@](C)(O)[C@@H](O)[C@H](C)O3)[C@H](N(C)C)[C@H]2O)[C@@H](CC=O)C[C@@H](C)C(=O)/C=C/C(C)=C/[C@@H]1CO[C@@H]1O[C@H](C)[C@@H](O)[C@@H](OC)[C@H]1OC; 2
CC[C@H]1OC(=O)[C@H](C)[C@@H](O[C@H]2C[C@@](C)(OC)[C@@H](O)[C@H](C)O2)[C@H](C)[C@@H](O[C@@H]2O[C@H](C)C[C@H](N(C)C)[C@H]2O)[C@](C)(O)C[C@@H](C)CN(C)[C@H](C)[C@@H](O)[C@]1(C)O; 0.063

Query compound follows.
For CC[C@H]1OC(=O)[C@H](C)[C@@H](O[C@H]2C[C@@](C)(OC)[C@@H](O)[C@H](C)O2)[C@H](C)[C@@H](O[C@@H]2O[C@H](C)C[C@H](N(C)C)[C@H]2O)[C@](C)(O)C[C@@H](C)C(=O)[C@H](C)[C@@H](O)[C@]1(C)O , what is its reported MIC?
0.5

* * *

# Test system: MphI
# Construct: full-length, His-tagged in pET22b, expressed in E. coli BL21(DE3), Ni-NTA purified; primers span nt 1-927
# assay_name: PK/LDH-coupled continuous assay
# Format: biochemical, Paenibacillus sp. LC231
# condition_info: 200 uM GTP, 10 mM MgCl2, 40 mM KCl, pH 7.5
quantity_kind: Km (µM)
One number for each entry, in µM.

Quick one: give me Km for each item below, same order please.
1. CC[C@H]1OC(=O)[C@H](C)[C@@H](O[C@H]2C[C@@](C)(OC)[C@@H](O)[C@H](C)O2)[C@H](C)[C@@H](O[C@@H]2O[C@H](C)C[C@H](N(C)C)[C@H]2O)[C@](C)(O)C[C@@H](C)/C(=N\OCOCCOC)[C@H](C)[C@@H](O)[C@]1(C)O
2. CC[C@H]1OC(=O)[C@H](C)C(=O)[C@H](C)[C@@H](O[C@@H]2O[C@H](C)C[C@H](N(C)C)[C@H]2O)[C@](C)(OC)C[C@@H](C)C(=O)[C@H](C)[C@H]2N(CCCCn3cnc(-c4cccnc4)c3)C(=O)O[C@]12C
3. CC[C@H]1OC(=O)[C@H](C)[C@@H](O[C@H]2C[C@@](C)(OC)[C@@H](O)[C@H](C)O2)[C@H](C)[C@@H](O[C@@H]2O[C@H](C)C[C@H](N(C)C)[C@H]2O)[C@](C)(O)C[C@@H](C)CN(C)[C@H](C)[C@@H](O)[C@]1(C)O
4. CC[C@H]1OC(=O)[C@H](C)[C@@H](O[C@H]2C[C@@](C)(OC)[C@@H](O)[C@H](C)O2)[C@H](C)[C@@H](O[C@@H]2O[C@H](C)C[C@H](N(C)C)[C@H]2O)[C@](C)(O)C[C@@H](C)C(=O)[C@H](C)[C@@H](O)[C@]1(C)O

1: 32; 2: 3; 3: 56; 4: 110

Reference for the values: paper PMC5760710
